B1: Parvalbumin alpha, P02625 (parent)
chain: MSMTDLLSAEDIKKAIGAFTAADSFDHKKFFQMVGLKKKSADDVKKVFHILDKDKSGFIEEDELGSILKGFSSDARDLSAKETKTLMAAGDKDGDGKIGVEEFSTLVAES

# Variants of: B1
# protocolConditions: Rattus norvegicus; pH 7.4; Thermal; DSC; sodium phosphate 10 mM; NaCl 0.20 M; structure 1RTP; whole UniProt chain shown
measuredProperty: change of melting temperature, mutant - wild type (higher = more stable) (°C)

inputSequence	quantitativeResult
MSMTDLLSAEDIKKAIGAFTAADSFDHKKFFQMVGLKKKSADDVKKVFHILDKDKSGFIEEDELGSILKGFSSDARDLSASETKTLMAAGDKDGDGKIGVEEFSTLVAES [K81S]	-1.3
MSMTDLLSAEDIKKAIGAFTAPDSFDPKKFFQMVGLKKKSADDVKKVFHILDKDKSGFIEEDELGSILKGFSSDARDLSAKETKTLMAAGDKDGDGKIGVEEFSTLVAES [A22P H27P]	-2.2
MSMTDLLSAEDIKKAIGAFTAPDSFDHKKFFQMVGLKKKSADDVKKVFHILDKDKSGFIEEDELGSILKGFSSDARDLSASETKTLMAAGDKDGDGKIGVEEFSTLVAES [A22P K81S]	2
MSMTDLLSAEDIKKAIGAFTAADSFDPKKFFQMVGLKKKSADDVKKVFHILDKDKSGFIEEDELGSILKGFSSDARDLSAKETKTLMAAGDKDGDGKIGVEEFSTLVAES [H27P]	5.6
